tested on: blood vessel development and/or lymphangiogenesis in Xenopus embryos; type: in vivo, Xenopus laevis; settings: posterior cardinal vein, Xenopus embryos
value.type: PCV phenotype

> print(dat)
                                   compound  assay.value
1      N#CC(=Cc1ccc(O)c(O)c1)C(=O)Nc1ccccc1  hypoplastic
2         O=C1C(SCCO)=C(SCCO)C(=O)c2ccccc21  hypoplastic
3    COC(=O)Nc1nc2ccc(C(=O)c3cccs3)cc2[nH]1  hypoplastic
4  CC(C)[C@H](CO)Nc1nc(Nc2cccc(Cl)c2)c2ncn(C(C)C)c2n1       normal
5  COc1cc([C@@H]2c3cc4c(cc3[C@H](O)[C@H]3COC(=O)[C@H]23)OCO4)cc(OC)c1OC  hypoplastic

Go through the items and report each one's PCV phenotype.
1. COc1cc(OC)c(C=C2C(O)=Nc3ccccc32)c(OC)c1
2. O=C1Nc2ccc(I)cc2C1=Cc1cc(Br)c(O)c(Br)c1
3. Nc1ccc2c3c(cccc13)C(=O)NC2=O [4-Amino-1,8-naphthalimide]
4. O=c1c(-c2ccc(O)cc2)coc2cc(O)cc(O)c12
5. OCc1ccc(-c2nn(Cc3ccccc3)c3ccccc23)o1
6. CCn1c(=O)c2[nH]c(-c3ccccc3)nc2n(CC)c1=O

hypoplastic
normal
normal
normal
normal
normal

====

system: Xenopus embryos; conditions: embryonic stage; — = no stage of lethality given
value.type: Lethality

> print(dat)
                                   compound  assay.value
1   COc1cc(OC)c(C=C2C(O)=Nc3ccccc32)c(OC)c1        41/42
2  COc1ccc(CCCOC(Cn2ccnc2)c2ccc(OC)cc2)cc1.Cl (stereo not drawn)        41/42
3      O=c1c(-c2ccc(O)cc2)coc2cc(O)cc(O)c12        41/42

Answer briefly: Lethality recorded on Xenopus embryos for COC(=O)Nc1nc2ccc(C(=O)c3cccs3)cc2[nH]1
33/34

====

Would you kindly list Lethality (NF) for each of these compounds?
system: Xenopus embryos; conditions: compounds causing lethality; 20 μM, 1% DMSO, treatment from stage 31; Nieuwkoop & Faber stage
Numbers only, in NF.

> print(dat)
                                   compound  target.or.system      value.type  assay.value
1  COC(=O)c1c(C)[nH]c(C)c1C(=O)c1ccccc1Cc1ccccc1 [FPL 64176]   Xenopus embryos  Lethality (NF)           40

Go through the items and report each one's Lethality (NF).
1. CCN1/C(=C/C(C)=O)Sc2ccc(OC)cc21 [TG003]
2. CC[C@@H]1Cc2cc(O)ccc2C2=C1c1ccc(O)cc1C[C@H]2CC

[40, 41]

====

test system: Xenopus embryos; conditions: compounds causing edema; 20 μM, 1% DMSO, treatment from stage 31, scored to stage 47
Where a name gives a salt, the structure may show the parent alone.
value.type: Lethality (NF)
One number for each entry, in NF.

Sample records with Lethality (NF):
> print(dat)
                                   compound      value.type  assay.value
1  CC[C@H](C)C(=O)O[C@H]1CCC=C2C=C[C@H](C)[C@H](CC[C@@H]3C[C@@H](O)CC(=O)O3)[C@H]21 [Mevastatin]  Lethality (NF)           45
2  COC(=O)C1=C(C)NC(C)=C(C(=O)OCCN(C)Cc2ccccc2)C1c1cccc([N+](=O)[O-])c1 (centres unmarked) [Nicardipine hydrochloride]  Lethality (NF)           45
3  Nc1ncnc2c1c(-c1ccc(Oc3ccccc3)cc1)cn2C1CCCC1  Lethality (NF)           45
4  CN(C)S(=O)(=O)c1ccc2c(c1)C(=Cc1cc3c([nH]1)CCCC3)C(=O)N2 [SU 6656]  Lethality (NF)           46
5  Cc1cc(N)c2ccccc2[n+]1CCCCCCCCCC[n+]1c(C)cc(N)c2ccccc21.[Cl-].[Cl-] [Dequalinium dichloride]  Lethality (NF)           39

# return recorded Lethality (NF) for entry O.c1cnc2c(c1)ccc1cccnc12 [1,10-Phenanthroline monohydrate]
46

====

system: blood vessel development and/or lymphangiogenesis in Xenopus embryos; assay type: in vivo, Xenopus laevis; details: anterior lymph sac, Xenopus embryos
value.type: ALS phenotype

Sample records with ALS phenotype:
> print(dat)
                                   molecule     value.type  assay.value
1   CCn1c(=O)c2[nH]c(-c3ccccc3)nc2n(CC)c1=O  ALS phenotype      stunted
2  CN(C)c1cc2c(Nc3ccc4c(cnn4Cc4ccccc4)c3)ncnc2cn1  ALS phenotype     impaired
3            Oc1cc(-c2ccccc2)nc2nc(Cl)ccc12  ALS phenotype      stunted
4  CN(C)S(=O)(=O)c1ccc2c(c1)C(=Cc1cc3c([nH]1)CCCC3)C(=O)N2  ALS phenotype      stunted
5        CN(C)c1ccc(C=C2C(=O)Nc3ccccc32)cc1  ALS phenotype     impaired

Go through the items and report each one's ALS phenotype.
1. Cc1cc(N)c2ccccc2[n+]1CCCCCCCCCC[n+]1c(C)cc(N)c2ccccc21.[Cl-].[Cl-] [Dequalinium dichloride]
2. Nc1ccc2c3c(cccc13)C(=O)NC2=O [4-Amino-1,8-naphthalimide]

1: stunted; 2: impaired

# return recorded ALS phenotype for entry Nc1ncnc2c1c(-c1ccc(Oc3ccccc3)cc1)cn2C1CCCC1
impaired

====

Would you kindly list Lethality (NF) for each of these compounds?
test system: Xenopus embryos; details: Xenopus laevis, in vivo
Answers are plain numbers, in NF.

Sample records with Lethality (NF):
> print(dat)
                                   compound  unit.of.measure  assay.value
1  O=Nc1c(-c2c(O)[nH]c3ccccc23)[nH]c2ccccc12 [Indirubin-3′-oxime]               NF           45
2  CC(C)Cc1ccc(C(C)C(=O)O)cc1 (racemic) [(±)-Ibuprofen]               NF           45

Go through the items and report each one's Lethality (NF).
1. c1ccc2c(c1)[I+]c1ccccc1-2 [Diphenyleneiodonium chloride]
2. Nc1nc2ccc(Cl)cc2c2nc(-c3ccco3)nn12 [CGS-15943]

42
46

====

test system: Xenopus embryos; details: 20 μM, 1% DMSO, treatment from stage 31
value.type: edema or other phenotype in compound-treated Xenopus embryos/tadpoles (in words)

> print(dat)
                                   molecule  target.or.system            assay.value
1       Cc1cc(C)c(C=C2C(=O)Nc3ccccc32)[nH]1   Xenopus embryos      causing lethality
2  CC(C)c1ccc2c(c1)c(SC(C)(C)C)c(CC(C)(C)C(=O)[O-])n2Cc1ccc(Cl)cc1.[Na+]   Xenopus embryos      causing lethality
3  CN(C)c1cc2c(Nc3ccc4c(cnn4Cc4ccccc4)c3)ncnc2cn1   Xenopus embryos  enlarged lymph hearts
4  C#CCN1C(C)=C(C(=O)OC)C(c2cccc([N+](=O)[O-])c2)C(C(=O)OCC)=C1C (stereo not drawn)   Xenopus embryos  enlarged lymph hearts

====

test system: Xenopus embryos; conditions: compounds causing edema; 20 μM, 1% DMSO, treatment from stage 31, scored to stage 47
value.type: Lethality (NF)

Sample records with Lethality (NF):
> print(dat)
                                    molecule  assay.value
 1  COc1cc2c(cc1O)CC[C@@H]1[C@@H]2CC[C@]2(C)[C@@H](O)CC[C@@H]12 [2-methoxyestradiol, 2-Hydroxyestradiol 2-methyl ether]        33/34
 2  C=C[C@@]1(C)CC(=O)[C@]2(O)[C@@]3(C)[C@@H](O)CCC(C)(C)[C@@H]3[C@H](O)[C@H](OC(C)=O)[C@@]2(C)O1        41/42
 3  Cc1ccc(Cl)c(Nc2ccccc2C(=O)O)c1Cl.[Na] [Meclofenamic acid sodium]        41/42
 4  CC1=C(/C=C/C(C)=C/C=C/C(C)=C/C(=O)O)C(C)(C)CCC1        40 NF
 5    COC(=O)Nc1nc2ccc(C(=O)c3cccs3)cc2[nH]1        33/34
 6  COc1cc([C@@H]2c3cc4c(cc3[C@H](O)[C@H]3COC(=O)[C@H]23)OCO4)cc(OC)c1OC        41/42
 7      N#CC(=Cc1ccc(O)c(O)c1)C(=O)Nc1ccccc1        40 NF
 8  CCOC(=O)C1=C(C)NC(C)=C(C(=O)OC)C1c1cccc(Cl)c1Cl (stereo not drawn)        45 NF
 9   O=C1Nc2ccc(I)cc2C1=Cc1cc(Br)c(O)c(Br)c1        41/42
10  O=c1[nH]c2ccccc2n1C1CCN(CCCC(c2ccc(F)cc2)c2ccc(F)cc2)CC1 [Pimozide]        45 NF

Go through the items and report each one's Lethality (NF).
1. Oc1cc(-c2ccccc2)nc2nc(Cl)ccc12
2. C#CCN1C(C)=C(C(=O)OC)C(c2cccc([N+](=O)[O-])c2)C(C(=O)OCC)=C1C (stereo not drawn)

1: 39 NF; 2: 45 NF
